# experimental_target: T1, human LTBP3-proTGFβ1 complex (human, UniProt Q9NS15 866-1039)
# T1 construct: range 866-1039; also called hLTBP3-proTGFβ1; hLTBP3
# T1 sequence (Q9NS15 866-1039 limits assumed, chain 1 of 2): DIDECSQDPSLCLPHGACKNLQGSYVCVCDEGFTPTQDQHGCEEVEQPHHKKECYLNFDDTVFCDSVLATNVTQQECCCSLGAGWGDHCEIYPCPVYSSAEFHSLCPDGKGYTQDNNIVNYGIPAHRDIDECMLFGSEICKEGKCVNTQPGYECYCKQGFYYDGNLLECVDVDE
# T1 sequence (chain, as listed by the source limits assumed, chain 2 of 2): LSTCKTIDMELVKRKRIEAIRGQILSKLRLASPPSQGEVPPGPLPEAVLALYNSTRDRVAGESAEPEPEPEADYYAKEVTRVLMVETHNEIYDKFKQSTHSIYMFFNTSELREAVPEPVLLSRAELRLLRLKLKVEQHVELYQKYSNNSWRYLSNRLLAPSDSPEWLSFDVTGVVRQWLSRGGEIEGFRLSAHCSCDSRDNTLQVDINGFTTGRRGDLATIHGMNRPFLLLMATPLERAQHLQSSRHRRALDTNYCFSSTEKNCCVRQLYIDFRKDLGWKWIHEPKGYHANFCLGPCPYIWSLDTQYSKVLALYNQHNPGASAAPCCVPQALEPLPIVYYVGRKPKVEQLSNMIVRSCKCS
# test_description: BLI (Octet)
Record form. Attribute: pKd. Fill in for each entry.
pKd here is simply -log10 of the concentration when that concentration is written in mol/L.

// pKd lookup, binder = Ab28 (antibody, V domains shown) VH: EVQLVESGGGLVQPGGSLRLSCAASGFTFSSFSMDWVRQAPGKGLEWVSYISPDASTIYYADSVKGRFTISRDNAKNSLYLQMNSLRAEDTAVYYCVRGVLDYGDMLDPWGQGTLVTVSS VL: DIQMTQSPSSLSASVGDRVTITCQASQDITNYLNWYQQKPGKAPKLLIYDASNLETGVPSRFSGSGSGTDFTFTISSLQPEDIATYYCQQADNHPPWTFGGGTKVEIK , result: 9.50

// pKd lookup, binder = Ab11 (antibody, IgG4, V domains shown) VH: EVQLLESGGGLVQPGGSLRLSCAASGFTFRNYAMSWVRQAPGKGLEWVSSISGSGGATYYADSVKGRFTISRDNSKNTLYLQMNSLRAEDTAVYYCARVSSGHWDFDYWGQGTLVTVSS VL: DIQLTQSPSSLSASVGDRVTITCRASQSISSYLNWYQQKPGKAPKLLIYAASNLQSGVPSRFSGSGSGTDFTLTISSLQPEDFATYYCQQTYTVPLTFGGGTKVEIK , result: 9.81
